- target-desc: rhesus H3 receptor (Macaca mulatta)
- Construct: rhesus monkey (Macacca Mulatta) 445 amino acid H3 receptor; (Genbank #AY231164); membranes
- Sequence (Q865E1 1-445): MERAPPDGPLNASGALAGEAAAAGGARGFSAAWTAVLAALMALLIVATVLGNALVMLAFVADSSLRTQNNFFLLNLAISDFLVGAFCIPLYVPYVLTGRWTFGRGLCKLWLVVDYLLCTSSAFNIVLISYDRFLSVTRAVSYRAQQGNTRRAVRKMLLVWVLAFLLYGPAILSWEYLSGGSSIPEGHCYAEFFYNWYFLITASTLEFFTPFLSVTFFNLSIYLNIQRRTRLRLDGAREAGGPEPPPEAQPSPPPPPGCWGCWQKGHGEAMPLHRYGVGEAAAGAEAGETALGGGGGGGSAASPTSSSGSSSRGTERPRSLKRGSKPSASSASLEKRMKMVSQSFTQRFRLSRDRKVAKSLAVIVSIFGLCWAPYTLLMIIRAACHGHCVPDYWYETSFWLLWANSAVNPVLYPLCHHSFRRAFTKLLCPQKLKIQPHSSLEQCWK
- assay-protocol: Rhesus H3 [3H]-Methylhistamine radioligand binding assay (SPA)
- assay-setup: [3H]-Methylhistamine 2 nM, rhesus H3 membranes, Cheng-Prusoff
Structures can show the parent of a compound that is named as a salt.
assay-metric: log10 Ki (log10 of the value in µM)
Log10 applied to Ki; unit prior to transform: µM.

Take a look at these entries with their results.
| compound | log10 Ki |
| --- | --- |
| CC1CCCN1C1CCN(c2ccc(NC(=O)NCc3cccs3)cc2)C1 (stereo not shown) [Example 8, trifluoroacetate] | -2.70 |
| CC1CCCN1C1CCN(c2ccc(NC(=O)Nc3cc(Cl)cc(Cl)c3)cc2)C1 (stereo not shown) [Example 12, trifluoroacetate] | -1.72 |
| CC(=O)N(C)C1CCN(C(=O)Nc2ccc(N3CCC(N4CCCC4C)C3)c(C)c2)C1 (stereo not shown) [Example 2, trifluoroacetate] | -1.05 |

So what does the record say about log10 Ki for CC1CCCN1C1CCN(c2ccc(NC(=O)NCc3cc(Cl)cc(Cl)c3)c(C(F)(F)F)c2)C1 (stereo not shown) [Example 25, trifluoroacetate] ? -1.74

Now give it for Cc1cc(NC(=O)N2CCN(C)CC2)ccc1N1CCC(N2CCCC2C)C1 (stereo not shown) [Example 20, trifluoroacetate] too. -1.90

Now give it for CC1CCCN1C1CCN(c2ccc(NC(=O)N3CCN(c4ccccc4)CC3)cc2)C1 (stereo not shown) [Example 4, trifluoroacetate] too. -1.97

Now give it for Cc1cc(N2CCC(N3CCCC3C)C2)ccc1NC(=O)N1CCN(C)CC1 (stereo not shown) [Example 17, trifluoroacetate] too. -1.98

###

- target-desc: rhesus H3 receptor (Macaca mulatta)
- Construct: rhesus monkey (Macacca Mulatta) 445 amino acid H3 receptor; (Genbank #AY231164); membranes
- assay-protocol: Rhesus H3 [3H]-Methylhistamine radioligand binding assay (SPA)
- assay-setup: [3H]-Methylhistamine 2 nM, rhesus H3 membranes, Cheng-Prusoff
Where a name gives a salt, the structure may show the parent alone.
Response field label: string, one of 1 (Ki strictly below 10 nM) or 0.

# count of solved cases: 6
| compound | target-desc | discrete-label |
| --- | --- | --- |
| Cc1cc(N2CCC(N3CCCC3C)C2)ccc1NC(=O)N1Cc2ccccc2C1 (stereo not drawn) [Example 18, trifluoroacetate] | rhesus H3 receptor (Macaca mulatta) | 0 |
| Cc1cc(NC(=O)Nc2cc(Cl)cc(Cl)c2)ccc1N1CCC(N2CCCC2C)C1 (stereo not drawn) [Example 19, trifluoroacetate] | rhesus H3 receptor (Macaca mulatta) | 0 |
| Cc1cc(N2CCC(N3CCCC3C)C2)ccc1NC(=O)Nc1cc(Cl)cc(Cl)c1 (stereo not drawn) [Example 15, trifluoroacetate] | rhesus H3 receptor (Macaca mulatta) | 0 |
| CC1CCCN1C1CCN(c2ccc(NC(=O)N3CCN(C)CC3)cc2)C1 (stereo not drawn) [Example 5, trifluoroacetate] | rhesus H3 receptor (Macaca mulatta) | 0 |
| Cc1cc(NC(=O)N2CCCCC2)ccc1N1CCC(N2CCCC2C)C1 (stereo not drawn) [Example 24, trifluoroacetate] | rhesus H3 receptor (Macaca mulatta) | 0 |
| CC(=O)N(C)C1CCN(C(=O)Nc2ccc(N3CCC(N4CCCC4C)C3)cc2)C1 (stereo not drawn) [Example 14, trifluoroacetate] | rhesus H3 receptor (Macaca mulatta) | 0 |

API: query returns whether the compound falls strictly under 10 nM in Ki. Query: Cc1cc(N2CCC(N3CCCC3C)C2)ccc1NC(=O)NC1CCCCC1 (stereo not drawn) [Example 16, trifluoroacetate] 1

Now give it for Cc1cc(NC(=O)NC2CCCCC2)ccc1N1CCC(N2CCCC2C)C1 (stereo not drawn) [Example 10, trifluoroacetate] too. 0

Now give it for CC(=O)N1CCN(C(=O)Nc2ccc(N3CCC(N4CCCC4C)C3)cc2)CC1 (stereo not drawn) [Example 13, trifluoroacetate] too. 0

Now give it for Cc1cc(NC(=O)N2Cc3ccccc3C2)ccc1N1CCC(N2CCCC2C)C1 (stereo not drawn) [Example 21, trifluoroacetate] too. 1

Now give it for CC1CCCN1C1CCN(c2ccc(NC(=O)N3Cc4ccccc4C3)cc2)C1 (stereo not drawn) [Example 6, trifluoroacetate] too. 0

Now give it for CC(=O)N1CCN(C(=O)Nc2ccc(N3CCC(N4CCCC4C)C3)c(C)c2)CC1 (stereo not drawn) [Example 22, trifluoroacetate] too. 0

Now give it for Cc1cc(NC(=O)Nc2cccc(C#N)c2)ccc1N1CCC(N2CCCC2C)C1 (stereo not drawn) [Example 23, trifluoroacetate] too. 1

Now give it for Cc1cc(NC(=O)NCc2cccs2)ccc1N1CCC(N2CCCC2C)C1 (stereo not drawn) [Example 11, trifluoroacetate] too. 1

###

- target-desc: rhesus H3 receptor (Macaca mulatta)
- Construct: rhesus monkey (Macacca Mulatta) 445 amino acid H3 receptor; (Genbank #AY231164); membranes
- assay-protocol: Rhesus H3 [3H]-Methylhistamine radioligand binding assay (SPA)
- assay-setup: [3H]-Methylhistamine 2 nM, rhesus H3 membranes, Cheng-Prusoff
Structures can show the parent of a compound that is named as a salt.
assay-metric: Ki (nM)
All answers are understood in nM, so give the number only.

| compound | Ki [nM] |
| --- | --- |
| Cc1cc(NC(=O)NCc2cc(Cl)cc(Cl)c2)ccc1N1CCC(N2CCCC2C)C1 (stereo not shown) [Example 9, trifluoroacetate] | 28.9 |
| CC1CCCN1C1CCN(c2ccc(NC(=O)NC3CCCCC3)cc2)C1 (stereo not shown) [Example 3, trifluoroacetate] | 4.1 |
| CC1CCCN1C1CCN(c2ccc(NC(=O)N3CCCCC3)cc2)C1 (stereo not shown) [Example 1, trifluoroacetate] | 6 |

State its Ki on rhesus H3 receptor (Macaca mulatta): CC1CCCN1C1CCN(c2ccc(NC(=O)Nc3cccc(C#N)c3)cc2)C1 (stereo not shown) [Example 7, trifluoroacetate] 7.7
